tested on: HOP-18 NSCLC; assay: NCI tumour cell line growth inhibition, 48 h

{"columns": ["Compound", "TGI"],
 "data": [
  ["N.N.N.N.N.O=C([O-])c1nn[n-]n1.[Cl-].[Co+3]", "> 100 µM"],
  ["CC(=O)OC1C=C(C=O)C(O)(C=O)C2(C)CCCC(C)(C)C12 (configuration not stated)", "1.58 µM"],
  ["CCCCCCCCCCCCCC1CCC(CC)N1 (configuration not stated)", "30.9 µM"],
  ["CC1=C2C(=O)O[C@@H](c3ccoc3)[C@]2(C)CCC1", "> 100 µM"],
  ["Cc1ccccc1N(CCC#N)C1=NN(C(=O)CC(=O)Nc2ccccc2)C(c2ccccc2)C1 (configuration not stated)", "> 100 µM"],
  ["Cc1[nH]c(=O)[nH]c(=O)c1/C=C/C(=O)NC(CO)CC(C)C (configuration not stated)", "> 375 µM"],
  ["CC(C)N(C(=O)C12CC3CC(CC(C3)C1)C2)C(C)C", "> 50 µM"]
]}
